# TESTED TARGET: GLP-1R (Homo sapiens, UniProt P43220)
# Sequence (P43220 24-463): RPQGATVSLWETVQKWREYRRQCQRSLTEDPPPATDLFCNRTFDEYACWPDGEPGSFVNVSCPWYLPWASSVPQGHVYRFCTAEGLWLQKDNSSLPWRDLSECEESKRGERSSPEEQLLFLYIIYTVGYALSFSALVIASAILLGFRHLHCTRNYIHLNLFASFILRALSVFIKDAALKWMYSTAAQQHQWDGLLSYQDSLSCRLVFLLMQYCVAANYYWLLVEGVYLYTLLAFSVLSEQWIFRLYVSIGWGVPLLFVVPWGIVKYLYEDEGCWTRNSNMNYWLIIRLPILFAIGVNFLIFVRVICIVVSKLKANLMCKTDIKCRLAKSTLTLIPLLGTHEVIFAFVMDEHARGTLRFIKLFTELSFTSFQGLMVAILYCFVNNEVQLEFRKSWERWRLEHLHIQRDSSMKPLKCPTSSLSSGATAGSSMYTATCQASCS
# METHOD NOTES: GLP-1R activation: cAMP increase in CHO cells stably expressing GLP-1R
# Assay type: cell-based
# EXPERIMENTAL CONDITIONS: cAMP increase, CHO cells stably expressing GLP-1R, 10 point dose response, 30 minutes incubation; read-out: EC50
PROPERTY LABEL: EC50 (nM)
Report only the number, with the unit nM understood.

Can you share its EC50? I mean this compound: N#Cc1ccc(COc2cccc(-c3cc(F)c(Cc4nc5ccc(C(=O)O)cc5n4CC4(C(F)F)COC4)cc3F)n2)c(F)c1 1.26

Fill in: EC50 of COCCOCCn1c(Cc2ccc(-c3cccc(OCc4ccc(C#N)cc4F)n3)cc2F)nc2ccc(C(=O)O)cc21 is ___ 27.4

Please look up its EC50: CO[C@H]1COC[C@@H]1n1c(Cc2cc(F)c(-c3cccc(OCc4ccc(C#N)cc4F)n3)cc2F)nc2ccc(C(=O)O)cc21 2.55

Quick one: EC50 for COCCn1c(Cc2ccc(-c3nc(OCc4ccc(C#N)cc4F)ccc3F)c(F)c2)nc2ccc(C(=O)O)cc21 ? 932

Fill in: EC50 of COCCn1c(Cc2cc(F)c(-c3ccc(F)c(OCc4ccc(C#N)cc4F)n3)cc2F)nc2c(F)cc(C(=O)O)cc21 is ___ 0.76

Could you tell me which EC50 is on file for N#Cc1ccc(COc2cccc(-c3ccc(Cc4nc5ccc(C(=O)O)cc5n4Cc4ccccc4)c(F)c3)n2)c(F)c1 ? 12.8

Which EC50 value is on record for COCCn1c(Cc2cc(F)c(-c3cccc(OCc4ccc(C(F)(F)F)cc4F)n3)cc2F)nc2ccc(C(=O)O)cc21 ? 0.47

----------
# TESTED TARGET: UniProtKB P43220
# METHOD NOTES: GLP-1R activation: cAMP increase in CHO cells stably expressing GLP-1R
# Assay type: cell-based
# EXPERIMENTAL CONDITIONS: cAMP increase, CHO cells stably expressing GLP-1R, 10 point dose response, 30 minutes incubation; read-out: EC50
What pEC50 was measured for each of the following?
# reply with the number alone; pEC50 is -log10 of concentration in mol/L

Look up pEC50: COCCn1c(Cc2ccc(-c3cccc(OCc4ccc(C#N)cc4F)n3)cc2C2=CCN(C(=O)OC(C)(C)C)CC2)nc2ccc(C(=O)O)cc21 [Example 173] 6.11

Any idea what its pEC50 is? The molecule is N#Cc1ccc(COc2ccc(F)c(-c3ccc(Cc4nc5ccc(C(=O)O)cc5n4C[C@@H]4CCO4)c(F)c3)n2)c(F)c1 [Example 797] 9.57

// pEC50 lookup, key: COCCn1c(Cc2ccc(-c3cccc(OCc4ccc(C#N)cc4F)n3)c(F)c2F)nc2ccc(C(=O)O)cc21 [Example 45] 7.44

# lookup: pEC50 of COCCn1c(Cc2cnn(-c3cccc(OCc4ccc(C#N)cc4F)n3)c2)nc2ccc(C(=O)O)cc21 [Example 107] 5.44

Query (molecule): COCCn1c(Cc2ccc(-c3ccc(F)c(OCc4ccc(C#N)cc4F)n3)c(F)c2)nc2ccc(C(=O)O)cc21 [Example 320] ; field requested: pEC50 7.74

Please look up its pEC50: O=C(O)c1ccc2nc(Cc3c(F)cc(-c4cccc(OCc5ccc(C(F)F)cc5F)n4)c(F)c3F)n(CC34CC(CO3)C4)c2c1 [Example 756] 8.85

Returns the measured pEC50 for the input molecule. Input: O=C(O)c1ccc2nc(Cc3cc(F)c(-c4cccc(OCc5ccc(Cl)cc5)n4)cc3F)n(C[C@@H]3CCO3)c2c1 [Example 808] 10.30

Fill in: pEC50 of COCCn1c(Cc2ccc(-c3cc(F)cc(OCc4ccc(C#N)cc4OC)n3)cc2F)nc2ccc(C(=O)O)cc21 [Example 77] is ___ 9.72

Data provenance is patent US11702404B2.
